- Tested on: CYP1A2
- Experiment: Induction of CYP1A2 mRNA expression in rat hepatocytes at 10 uM by Taqman analysis relative to control
- Assay type: ADME, cell-based, Hepatocyte
- Measurement Conditions: read-out: FC
Property: fold induction at 10 µM

1. CC(C)Oc1ccc(-c2nc(-c3ccc4c(c3)CCN(CCCC(=O)O)CC4)no2)cc1C#N : 2
2. CC(C)Oc1ccc(-c2nc(-c3cccc4c3OCCN(CCCC(=O)O)C4)no2)cc1Cl : 3
3. Cc1c(-c2noc(-c3ccc(OC(C)C)c(C#N)c3)n2)ccc2c1CCN(CCC(=O)O)C2 : < 1
4. CC(C)Oc1ccc(-c2nc(-c3cccc4c3cnn4CCC(=O)O)no2)cc1Cl : < 1

Origin of values: ChEMBL document CHEMBL3627702
